- Test system: NCI-H522
- test-description: NCI tumour cell line growth inhibition, 48 h
Activity calls are given as the source filed them. Rule as the data show it: active = GI50 up to about 1.1 µM and inactive = higher.
Here, each record is paired with measured GI50 data.

QUERY: Find the measured GI50 of CC(=O)OC(C)(C)/C=C/C(=O)[C@](C)(O)[C@H]1[C@H](O)C[C@@]2(C)[C@@H]3CC=C4[C@@H](C=C(O)C(=O)C4(C)C)[C@]3(C)C(=O)C[C@]12C with NCI-H522 as test system.
RESULT: 0.0407 µM (active)

QUERY: Find GI50 for COc1ccc2c(c1)CCCN1CCc3ccccc3C21 (centres undefined) on NCI-H522 and write it down.
RESULT: 52.1 µM (inactive)

***
QUERY: Please report GI50 with NCI-H522 for item COC(=O)[C@@]1(Cc2ccc(O)cc2)C[C@@H]2Cc3ccccc3N2N1 .
RESULT: 58.2 µM (inactive)

QUERY: Provide GI50, recorded with NCI-H522, of Cc1cc(C)c2c(c1)CC1(Cc3ccc(C)c(C)c3C1=O)C2=O (centres undefined)
RESULT: > 100 µM (inactive)

Where do the numbers come from? From ChEMBL document CHEMBL1201862.
